// data source = patent US20220177604A1

Biological target: T1, human immunoglobulin E (hIgE) (human, UniProt P01854-1 1-428)
T1 construct: also called human IgE; Native IgE (Abcam)
T1 sequence (P01854 whole entry): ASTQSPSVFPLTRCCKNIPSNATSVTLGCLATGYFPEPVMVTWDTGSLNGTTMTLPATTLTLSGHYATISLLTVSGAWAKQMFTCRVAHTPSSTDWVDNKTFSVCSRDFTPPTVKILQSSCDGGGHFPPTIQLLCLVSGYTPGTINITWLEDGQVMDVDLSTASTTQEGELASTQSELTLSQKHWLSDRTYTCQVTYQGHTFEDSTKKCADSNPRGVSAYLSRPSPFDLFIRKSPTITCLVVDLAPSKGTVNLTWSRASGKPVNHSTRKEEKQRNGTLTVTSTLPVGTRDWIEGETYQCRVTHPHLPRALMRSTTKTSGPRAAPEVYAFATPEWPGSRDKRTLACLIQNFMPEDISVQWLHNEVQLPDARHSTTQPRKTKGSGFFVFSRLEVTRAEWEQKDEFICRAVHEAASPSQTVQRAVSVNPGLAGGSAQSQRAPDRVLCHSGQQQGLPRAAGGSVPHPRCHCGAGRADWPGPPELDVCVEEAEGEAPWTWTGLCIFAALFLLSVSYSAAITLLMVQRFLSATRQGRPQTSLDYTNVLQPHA
Test: SPR competition, hIgE over hFcεRIα chip, pH 7.4
Experimental Endpoint: IC50

[[record]]
binder = "18E2 human IgG1 mAb (antibody, V domains shown, also called clone 18E2) VH: QLQLVESGGGLVQPGGSLRLSCAASGFTFSSYVMSWVRQAPGKGLEWVSSIYHDGSHTYYADFVKGRFTISRDNAKNTLYLQMNSLKSEDTAVYYCASGTSYSGSYYYTDPFFGSWGQGTQVTVSS VL: NFMLTQPSALSVTLGQTARITCQGDRLGSRYIYWYQQKPPQAPVLVIHDDDRRPSGIPERFSGSSSGGTATLTISGAQAEDDGDYYCQSADSSGNPVFGGGTHLTVL"
value_reported = "0.628 µg/mL"

[[record]]
binder = "VH18E2_S35H (antibody, V domains shown) VH: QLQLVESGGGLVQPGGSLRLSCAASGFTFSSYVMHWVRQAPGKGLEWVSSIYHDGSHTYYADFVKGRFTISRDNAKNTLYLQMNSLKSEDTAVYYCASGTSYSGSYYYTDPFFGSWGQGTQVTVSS VL: NFMLTQPSALSVTLGQTARITCQGDRLGSRYIYWYQQKPPQAPVLVIHDDDRRPSGIPERFSGSSSGGTATLTISGAQAEDDGDYYCQSADSSGNPVFGGGTHLTVL"
value_reported = "0.811 µg/mL"

[[record]]
binder = "3D1 human IgG1 mAb (antibody, V domains shown, human IgG1 and human light chain constant domains; also called clone 3D1; WT 3D1) VH: QLQVVESGGGLVQPGGSLRLSCAASGFTFSSYYMSWVRQAPGKGLEWVSSIYSDGRGSKTFYADSVKGRFTISRDNAKNTLYLQMNSLKSEDTAVYFCAKDLLVAARGSMDYWGQGTQVTVSS VL: NFMLTQPSAVSVSLEQTARITCQGGTLGSYGAHWYQQKPGQAPVLLIYGDNSRPSGIPERFSGTRSGGTATLTISGAQAEDEADYYCQSFDYSGNAVFGGGTHLTVL"
value_reported = "1.36 µg/mL"

